Source listed as patent US20250034108A1.

tgt: human Nav1.5 (Homo sapiens (Human))
Sequence (Q14524 whole entry): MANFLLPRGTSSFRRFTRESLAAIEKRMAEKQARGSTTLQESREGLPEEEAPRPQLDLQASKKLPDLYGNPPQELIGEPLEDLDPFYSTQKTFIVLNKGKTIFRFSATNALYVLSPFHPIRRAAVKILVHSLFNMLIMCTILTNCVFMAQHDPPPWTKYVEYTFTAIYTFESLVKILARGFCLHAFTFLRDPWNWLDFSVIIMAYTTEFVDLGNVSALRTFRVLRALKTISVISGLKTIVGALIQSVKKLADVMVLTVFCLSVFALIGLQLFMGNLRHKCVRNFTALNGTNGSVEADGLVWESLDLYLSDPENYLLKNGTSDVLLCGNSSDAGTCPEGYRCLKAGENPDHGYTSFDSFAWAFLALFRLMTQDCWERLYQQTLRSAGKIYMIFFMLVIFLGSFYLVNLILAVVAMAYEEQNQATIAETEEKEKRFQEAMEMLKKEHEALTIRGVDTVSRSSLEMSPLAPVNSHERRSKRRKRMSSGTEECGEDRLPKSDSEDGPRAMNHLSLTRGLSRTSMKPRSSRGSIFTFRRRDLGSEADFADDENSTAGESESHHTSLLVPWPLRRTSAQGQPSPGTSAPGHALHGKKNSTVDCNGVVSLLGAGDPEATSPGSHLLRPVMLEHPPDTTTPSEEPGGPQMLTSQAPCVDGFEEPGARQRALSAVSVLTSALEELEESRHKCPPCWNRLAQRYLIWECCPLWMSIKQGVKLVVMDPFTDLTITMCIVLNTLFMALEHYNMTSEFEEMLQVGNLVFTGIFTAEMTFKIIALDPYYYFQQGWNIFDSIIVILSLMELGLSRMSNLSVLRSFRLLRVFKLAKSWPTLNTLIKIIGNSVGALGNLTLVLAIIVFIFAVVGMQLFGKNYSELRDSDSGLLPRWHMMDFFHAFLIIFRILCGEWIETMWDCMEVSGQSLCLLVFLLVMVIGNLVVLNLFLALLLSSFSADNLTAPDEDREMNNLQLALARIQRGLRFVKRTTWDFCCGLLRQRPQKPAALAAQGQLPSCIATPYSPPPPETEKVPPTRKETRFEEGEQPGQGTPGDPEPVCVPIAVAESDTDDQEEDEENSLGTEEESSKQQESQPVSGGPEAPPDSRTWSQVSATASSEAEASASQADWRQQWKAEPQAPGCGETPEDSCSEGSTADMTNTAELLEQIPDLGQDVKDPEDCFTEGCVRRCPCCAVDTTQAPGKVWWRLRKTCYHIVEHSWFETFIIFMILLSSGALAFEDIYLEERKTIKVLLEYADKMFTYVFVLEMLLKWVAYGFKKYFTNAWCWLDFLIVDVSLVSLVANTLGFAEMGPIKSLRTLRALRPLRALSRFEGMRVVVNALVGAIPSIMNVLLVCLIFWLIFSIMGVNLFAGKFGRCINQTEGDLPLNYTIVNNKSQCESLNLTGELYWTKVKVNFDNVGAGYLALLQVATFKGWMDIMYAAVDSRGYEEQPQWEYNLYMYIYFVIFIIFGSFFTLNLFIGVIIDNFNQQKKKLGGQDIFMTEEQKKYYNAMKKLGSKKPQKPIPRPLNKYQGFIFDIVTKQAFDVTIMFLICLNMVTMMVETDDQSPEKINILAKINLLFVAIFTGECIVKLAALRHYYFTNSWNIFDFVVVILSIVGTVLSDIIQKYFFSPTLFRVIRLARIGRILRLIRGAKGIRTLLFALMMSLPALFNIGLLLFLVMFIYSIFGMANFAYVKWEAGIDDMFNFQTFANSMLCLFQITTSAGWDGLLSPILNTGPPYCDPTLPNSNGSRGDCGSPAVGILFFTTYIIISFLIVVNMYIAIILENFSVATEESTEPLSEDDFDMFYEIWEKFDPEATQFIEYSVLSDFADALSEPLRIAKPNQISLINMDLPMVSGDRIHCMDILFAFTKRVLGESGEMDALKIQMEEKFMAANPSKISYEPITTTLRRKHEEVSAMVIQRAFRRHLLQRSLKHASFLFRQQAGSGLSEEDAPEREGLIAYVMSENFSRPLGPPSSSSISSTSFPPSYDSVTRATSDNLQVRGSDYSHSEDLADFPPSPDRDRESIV
assay-remarks: Qpatch automated patch-clamp, peak Nav1.5 current inhibition, 5-Hz AF-like assay (holding potential -85 mV)
Type: cell-based
experimental-context: CHO-K1 cells stably expressing human Nav1.5, holding potential -85 mV, Table 5, read-out: Nav1.5 IC50 (5 Hz, AF Rate)
Below, each entry is listed alongside its reported IC50.
measured-attribute: IC50

{"molecule": "CC(O)(CS(N)(=O)=O)c1cccc(-c2nnn(Cc3cc(OC(F)(F)F)ccc3F)n2)c1 (single isomer, unassigned) [Example 25]", "measured-attribute": "IC50", "recorded-value": "5.5 µM"}
{"molecule": "CC(O)(CS(N)(=O)=O)c1cccc(-c2ncn(Cc3cc(OC(F)(F)F)ccc3F)n2)n1 (single isomer, unassigned) [Example 56]", "measured-attribute": "IC50", "recorded-value": "16 µM"}
{"molecule": "CC(C(C)(O)c1cccc(-c2nnn(Cc3cc(OC(F)(F)F)ccc3F)n2)n1)S(N)(=O)=O (single isomer, unassigned) [Example 14]", "measured-attribute": "IC50", "recorded-value": "4 µM"}
{"molecule": "CC(O)(CS(N)(=O)=O)c1cccc(-c2nnn(Cc3cc(F)ccc3F)n2)n1 (single isomer, unassigned) [Example 17]", "measured-attribute": "IC50", "recorded-value": "24 µM"}
{"molecule": "CC(O)(CS(N)(=O)=O)c1cccc(-c2ccn(Cc3cc(OC(F)(F)F)ccc3F)n2)n1 (single isomer, unassigned) [Example 38]", "measured-attribute": "IC50", "recorded-value": "4.3 µM"}
{"molecule": "CC(O)(CS(N)(=O)=O)c1cccc(-c2nnn(Cc3cccc(C(F)(F)F)c3)n2)n1 (single isomer, unassigned) [Example 41]", "measured-attribute": "IC50", "recorded-value": "> 30 µM"}
